pIC50 by entry:
System: Leishmania donovani
Assay: Antitrypanosomal activity against amastigotes of Leishmania donovani MHOM/ET/67/L82 after 72 hrs by inverted microscope analysis
Assay type: functional, organism-based
Conditions: MHOM/ET/67/L82, 72 h
When answering, recall that pIC50 equals minus log10 of the concentration in mol/L, and write that number alone.

COc1cccc2c1C(=O)C(Oc1ccc(NC(C)=O)cc1)=CC2=O : 5.23
COc1ccc(OC2=CC(=O)c3c(O)cccc3C2=O)cc1 : 5.68
CC(=O)Nc1ccc(OC2=CC(=O)c3c(O)cccc3C2=O)cc1 : 5.42
O=C1C=C(Oc2ccccc2)C(=O)c2c(O)cccc21 : 5.53
Cc1ccc(OC2=CC(=O)c3c(O)cccc3C2=O)cc1 : 5.26

Per the record, `COc1cccc2c1C(=O)C=C(Oc1ccc(NC(C)=O)cc1)C2=O` has pIC50 of 5.32

Per the record, `COc1cccc2c1C(=O)C=C(Oc1ccccc1)C2=O` has pIC50 of 5.25

Per the record, `O=C1C=C(Oc2ccc(F)cc2)C(=O)c2ccccc21` has pIC50 of 5.74

Per the record, `COc1ccc(OC2=CC(=O)c3cccc(OC)c3C2=O)cc1` has pIC50 of 4.65

Per the record, `O=C1C(Oc2ccc(F)cc2)=CC(=O)c2c(O)cccc21` has pIC50 of 5.52

###

Test system: HT-29
Experiment: Selectivity index, ratio of IC50 for HDF to IC50 for human HT-29 cells
assay_readout: Ratio IC50

Here are 3 compounds together with their reported answers.
COc1ccc(OC2=CC(=O)c3cc4ccccc4cc3C2=O)cc1 : 4.46
COc1cccc2c1C(=O)C(Oc1ccc(F)cc1)=CC2=O : 4.4
O=C1C=C(Oc2ccccc2)C(=O)c2ccccc21 : 2.24

Would you kindly look at the next entry?
Summary: `O=C1C(Oc2ccccc2)=CC(=O)c2c(O)cccc21` , HT-29, Ratio IC50 = 6.2

###

IC50 by entry:
Tested on: Leishmania donovani
Assay: Antitrypanosomal activity against amastigotes of Leishmania donovani MHOM/ET/67/L82 after 72 hrs by inverted microscope analysis
Type: functional, organism-based
Conditions: MHOM/ET/67/L82, 72 h
Note: unit µM is implicit; provide only the numeric part.

Here are 10 compounds together with their reported answers.
CC(=O)Nc1ccc(OC2=CC(=O)c3cccc(O)c3C2=O)cc1 : 2.33
Cc1ccc(OC2=CC(=O)c3cc4ccccc4cc3C2=O)cc1 : 1.16
CC(=O)Nc1ccc(OC2=CC(=O)c3cc4ccccc4cc3C2=O)cc1 : 3.25
CC(=O)Nc1ccc(OC2=CC(=O)c3ccccc3C2=O)cc1 : 4.04
COc1ccc(OC2=CC(=O)c3cccc(O)c3C2=O)cc1 : 3.13
COc1cccc2c1C(=O)C=C(Oc1ccc(F)cc1)C2=O : 3.72
COc1ccc(OC2=CC(=O)c3cc4ccccc4cc3C2=O)cc1 : 2.55
O=C1C=C(Oc2ccc(F)cc2)C(=O)c2cc3ccccc3cc21 : 2.14
Cc1ccc(OC2=CC(=O)c3ccccc3C2=O)cc1 : 3.41
COc1cccc2c1C(=O)C(Oc1ccccc1)=CC2=O : 13.1

Per the record, `COc1cccc2c1C(=O)C=C(Oc1ccc(C)cc1)C2=O` has IC50 of 2.64

Per the record, `COc1ccc(OC2=CC(=O)c3ccccc3C2=O)cc1` has IC50 of 5.32
